FYI, the data here is from ChEMBL document CHEMBL1932988.

- Test system: Aspergillus niger
- Assay Info: Antifungal activity against Aspergillus niger MTCC 8189 after 7 days by tube dilution method
- Type: functional
Outcome Measure: -logMIC
API doc: respond with a numeric literal and nothing else, no unit.

Would you please look over these solved cases?
Compound: CCOC(=O)C1=C(C)NC(=S)NC1c1cn(C(=O)CNc2ccccc2N)c2ccccc12 (configuration not stated)
Target Desc: Aspergillus niger
Result: 1.57
//
Compound: CCOC(=O)C1=C(C)NC(=S)NC1c1cn(C(=O)CNc2ccc([N+](=O)[O-])cc2C)c2ccccc12 (configuration not stated)
Target Desc: Aspergillus niger
Result: 1.61
//
Compound: CCOC(=O)C1=C(C)NC(=O)NC1c1cn(C(=O)CNc2ccccc2N)c2ccccc12 (configuration not stated)
Target Desc: Aspergillus niger
Result: 1.55
//
Compound: CCOC(=O)C1=C(C)NC(=S)NC1c1cn(C(=O)CNc2cccc([N+](=O)[O-])c2)c2ccccc12 (configuration not stated)
Target Desc: Aspergillus niger
Result: 1.6
//
Compound: CCOC(=O)C1=C(C)NC(=O)NC1c1cn(C(=O)CNc2ccccc2[N+](=O)[O-])c2ccccc12 (configuration not stated)
Target Desc: Aspergillus niger
Result: 1.58
//
Compound: CCOC(=O)C1=C(C)NC(=O)NC1c1cn(C(=O)CNc2ccc([N+](=O)[O-])cc2C)c2ccccc12 (configuration not stated)
Target Desc: Aspergillus niger
Result: 1.59
//
Compound: CCOC(=O)C1=C(C)NC(=S)NC1c1cn(C(=O)CNc2ccccc2[N+](=O)[O-])c2ccccc12 (configuration not stated)
Target Desc: Aspergillus niger
Result: 1.6
//
Compound: OC(Cn1cncn1)(Cn1cncn1)c1ccc(F)cc1F
Target Desc: Aspergillus niger
Result: 2.64

Please give the measured -logMIC for this compound: CCOC(=O)C1=C(C)NC(=S)NC1c1cn(C(=O)CNc2ccccc2Cl)c2ccccc12 (configuration not stated)
1.59

Please give the measured -logMIC for this compound: CCOC(=O)C1=C(C)NC(=O)NC1c1cn(C(=O)CNc2cccc([N+](=O)[O-])c2)c2ccccc12 (configuration not stated)
1.58

Please give the measured -logMIC for this compound: CCOC(=O)C1=C(C)NC(=O)NC1c1cn(C(=O)CNc2ccc([N+](=O)[O-])cc2Cl)c2ccccc12 (configuration not stated)
1.61

Please give the measured -logMIC for this compound: CCOC(=O)C1=C(C)NC(=S)NC1c1cn(C(=O)CNc2ccc([N+](=O)[O-])cc2)c2ccccc12 (configuration not stated)
1.6

Please give the measured -logMIC for this compound: CCOC(=O)C1=C(C)NC(=S)NC1c1cn(C(=O)CNc2ccc(Cl)cc2)c2ccccc12 (configuration not stated)
1.59

Please give the measured -logMIC for this compound: CCOC(=O)C1=C(C)NC(=O)NC1c1cn(C(=O)CNc2ccc(Cl)cc2)c2ccccc12 (configuration not stated)
1.57

Please give the measured -logMIC for this compound: CCOC(=O)C1=C(C)NC(=S)NC1c1cn(C(=O)CNc2ccc([N+](=O)[O-])c(Cl)c2)c2ccccc12 (configuration not stated)
1.63

Please give the measured -logMIC for this compound: CCOC(=O)C1=C(C)NC(=S)NC1c1cn(C(=O)CNc2ccccc2)c2ccccc12 (configuration not stated)
1.55

Please give the measured -logMIC for this compound: CCOC(=O)C1=C(C)NC(=O)NC1c1cn(C(=O)CNc2ccc([N+](=O)[O-])cc2)c2ccccc12 (configuration not stated)
1.58

---

- Tested on: Bacillus subtilis
- Assay Info: Antibacterial activity against Bacillus subtilis MTCC 2063 after 24 hrs by tube dilution method hrs followed by subculturing
- Type: functional
Outcome Measure: MBC

Would you please look over these solved cases?
Molecule: CCOC(=O)C1=C(C)NC(=S)NC1c1cn(C(=O)CNc2ccc([N+](=O)[O-])c(Cl)c2)c2ccccc12 (centres undefined)
Outcome Measure: MBC
Result: >0.09 uM/ml

Molecule: CCOC(=O)C1=C(C)NC(=O)NC1c1cn(C(=O)CNc2ccccc2[N+](=O)[O-])c2ccccc12 (centres undefined)
Outcome Measure: MBC
Result: >0.1 uM/ml

Molecule: CCOC(=O)C1=C(C)NC(=S)NC1c1cn(C(=O)CNc2ccc(Cl)cc2)c2ccccc12 (centres undefined)
Outcome Measure: MBC
Result: >0.1 uM/ml

The record that follows has no MBC shown yet.
Please give the measured MBC for this molecule: CCOC(=O)C1=C(C)NC(=O)NC1c1cn(C(=O)CNc2ccc([N+](=O)[O-])cc2)c2ccccc12 (centres undefined)
>0.1 uM/ml

---

Entries annotated with measured MFC
- System: Candida albicans
- Assay Info: Antifungal activity against Candida albicans MTCC 227 after 48 hrs by tube dilution method hrs followed by subculturing
- Assay type: functional

Would you please look over these solved cases?
Compound: CCOC(=O)C1=C(C)NC(=S)NC1c1cn(C(=O)CNc2cccc([N+](=O)[O-])c2)c2ccccc12 (stereo not drawn)
Result: >0.1 uM/ml
--
Compound: CCOC(=O)C1=C(C)NC(=S)NC1c1cn(C(=O)CNc2ccc([N+](=O)[O-])cc2C)c2ccccc12 (stereo not drawn)
Result: >0.1 uM/ml
--
Compound: CCOC(=O)C1=C(C)NC(=S)NC1c1cn(C(=O)CNc2ccccc2[N+](=O)[O-])c2ccccc12 (stereo not drawn)
Result: >0.1 uM/ml
--
Compound: CCOC(=O)C1=C(C)NC(=O)NC1c1cn(C(=O)CNc2ccccc2N)c2ccccc12 (stereo not drawn)
Result: >0.11 uM/ml

Please give the measured MFC for this compound: CCOC(=O)C1=C(C)NC(=O)NC1c1cn(C(=O)CNc2ccccc2[N+](=O)[O-])c2ccccc12 (stereo not drawn)
>0.1 uM/ml

---

- Assay Info: Partition coefficient, log P of the compound
- Format: physicochemical
- Condition Details: octanol/water
Entries annotated with measured logP
API doc: respond with a numeric literal and nothing else, no unit.

Would you please look over these solved cases?
Molecule: CCOC(=O)C1=C(C)NC(=O)NC1c1cn(C(=O)CNc2ccc(Cl)cc2)c2ccccc12 (centres undefined)
logP: 2.04
//
Molecule: CCOC(=O)C1=C(C)NC(=S)NC1c1cn(C(=O)CNc2ccccc2Cl)c2ccccc12 (centres undefined)
logP: 3.44
//
Molecule: CCOC(=O)C1=C(C)NC(=O)NC1c1cn(C(=O)CNc2ccc([N+](=O)[O-])cc2)c2ccccc12 (centres undefined)
logP: 1.48

Please give the measured logP for this molecule: CCOC(=O)C1=C(C)NC(=O)NC1c1cn(C(=O)CNc2ccccc2N)c2ccccc12 (centres undefined)
0.74

Please give the measured logP for this molecule: CCOC(=O)C1=C(C)NC(=S)NC1c1cn(C(=O)CNc2ccc([N+](=O)[O-])c(Cl)c2)c2ccccc12 (centres undefined)
3.4

Please give the measured logP for this molecule: CCOC(=O)C1=C(C)NC(=O)NC1c1cn(C(=O)CNc2ccc([N+](=O)[O-])cc2Cl)c2ccccc12 (centres undefined)
1.99

Please give the measured logP for this molecule: CCOC(=O)C1=C(C)NC(=S)NC1c1cn(C(=O)CNc2ccccc2N)c2ccccc12 (centres undefined)
2.14

Please give the measured logP for this molecule: CCOC(=O)C1=C(C)NC(=S)NC1c1cn(C(=O)CNc2ccccc2)c2ccccc12 (centres undefined)
2.92

Please give the measured logP for this molecule: CCOC(=O)C1=C(C)NC(=S)NC1c1cn(C(=O)CNc2ccc(Cl)cc2)c2ccccc12 (centres undefined)
3.44

---

Entries annotated with measured MBC
- Test system: Bacillus subtilis
- Assay Info: Antibacterial activity against Bacillus subtilis MTCC 2063 after 24 hrs by tube dilution method hrs followed by subculturing
- Type: functional

Please give the measured MBC for this compound: CCOC(=O)C1=C(C)NC(=S)NC1c1cn(C(=O)CNc2ccc([N+](=O)[O-])cc2)c2ccccc12 (stereo not drawn)
>0.1 uM/ml

Please give the measured MBC for this compound: CCOC(=O)C1=C(C)NC(=O)NC1c1cn(C(=O)CNc2cccc([N+](=O)[O-])c2)c2ccccc12 (stereo not drawn)
>0.1 uM/ml

Please give the measured MBC for this compound: CCOC(=O)C1=C(C)NC(=O)NC1c1cn(C(=O)CNc2ccc([N+](=O)[O-])cc2C)c2ccccc12 (stereo not drawn)
>0.1 uM/ml

---

Entries annotated with measured IC50
- System: HCT-116
- Assay Info: cells
- Condition Details: Homo sapiens, HCT-116, 72 h
Field: numeric (µg/mL). Do not append units.

Compound: CCOC(=O)C1=C(C)NC(=O)NC1c1cn(C(=O)CNc2ccc([N+](=O)[O-])cc2C)c2ccccc12 (stereo not given)
IC50 (µg/mL): 600
//
Compound: CCOC(=O)C1=C(C)NC(=S)NC1c1cn(C(=O)CNc2ccccc2)c2ccccc12 (stereo not given)
IC50 (µg/mL): 450

The record that follows has no IC50 shown yet.
Quick check: IC50 on HCT-116, item O=c1[nH]cc(F)c(=O)[nH]1 ?
6

---

- Test system: Candida albicans
- Assay Info: Antifungal activity against Candida albicans MTCC 227 after 48 hrs by tube dilution method hrs followed by subculturing
- Type: functional
Entries annotated with measured MFC

Would you please look over these solved cases?
Compound: CCOC(=O)C1=C(C)NC(=S)NC1c1cn(C(=O)CNc2ccccc2Cl)c2ccccc12 (centres undefined)
Target Desc: Candida albicans
MFC: >0.1 uM/ml

Compound: OC(Cn1cncn1)(Cn1cncn1)c1ccc(F)cc1F [FLUCONAZOLE]
Target Desc: Candida albicans
MFC: 0.04 uM/ml

Compound: CCOC(=O)C1=C(C)NC(=O)NC1c1cn(C(=O)CNc2ccc(Cl)cc2)c2ccccc12 (centres undefined)
Target Desc: Candida albicans
MFC: >0.11 uM/ml

The record that follows has no MFC shown yet.
Please give the measured MFC for this compound: CCOC(=O)C1=C(C)NC(=O)NC1c1cn(C(=O)CNc2ccc([N+](=O)[O-])cc2C)c2ccccc12 (centres undefined)
>0.1 uM/ml
